# reported melting point; entries follow

Consider the reported melting point for these compounds:
{"compound": "CCCCCCC(=O)OCCOC(=O)NC1(C(=O)O)CC1 [Compound 13]", "test.value": "112.6 to 113.2 °C"}
{"compound": "O=C(NC1(C(=O)O)CC1)OCCOC(=O)c1ccccc1 [Compound 4]", "test.value": "173.8 to 175.8 °C"}
{"compound": "CC(C)C(OC(=O)NC1(C(=O)O)CC1)OC(=O)C1CCCCC1 (centres unmarked) [Compound 11]", "test.value": "156 to 158.5 °C"}

Query :: For the compound CCCCC(=O)OC(C)OC(=O)NC1(C(=O)O)CC1 (centres unmarked) [Compound 8] , what melting point is on record?
Result :: 148 to 151.1 °C

Query :: Follow-up entry: O=C(/C=C/c1ccccc1)OCCOC(=O)NC1(C(=O)O)CC1 [Compound 16]
Result :: 169.3 to 172.2 °C

Reference source for all entries: patent US7799829B2
